- Test system: 475296-252-R-J1-PDC spheroid viability
- ASSAY_NOTES: Anticancer human tumor 475296-252-R-J1-PDC patient-derived rectal carcinoma cell line growth inhibition [PI3K]
- CONDITION_CONTEXT: second compound 0.00316 µM; first compound 0.1 µM; hits give low values; spheroids with HUVEC and MSC
TEST_READOUT: viability, T/C (%)
Report the value in % with no unit label.

- Cn1ncnc1[C@H]1c2n[nH]c(=O)c3cc(F)cc(c23)N[C@@H]1c1ccc(F)cc1 + CC(Nc1ccc2c(c1)OCCn1cc(N3C(=O)OCC3C(F)F)nc1-2)C(N)=O: 90.1

With those in mind, consider the next compound.
Observed viability, T/C, 475296-252-R-J1-PDC spheroid viability, Cn1ncnc1[C@H]1c2n[nH]c(=O)c3cc(F)cc(c23)N[C@@H]1c1ccc(F)cc1 + COc1c(OCCCN2CCOCC2)ccc2c3n(c(=NC(=O)c4cnc(N)nc4)nc12)CCN3 : 109

* * *

- Tested on: 475296-252-R-J1-PDC spheroid viability
- ASSAY_NOTES: Anticancer human tumor 475296-252-R-J1-PDC cell line growth inhibition [PI3K];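 note: spheroids exposed to agents for seven days before readout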
- CONDITION_CONTEXT: second compound 0.1 µM; first compound 1 µM; hits give low values; spheroids with HUVEC and MSC
Binning of viability, T/C into classes: category 1 (below 80%), category 2 (80% to below 90%), category 3 (90% or more)

* Cn1ncc(Cl)c1-c1cc(C(=O)NC(CN)Cc2cccc(F)c2)sc1Cl (stereo unspecified) + CC(Nc1ncnc2nc[nH]c12)c1cc2cccc(Cl)c2c(=O)n1-c1ccccc1 | category 1

Input: Please indicate the class for CNC(=O)c1ccc(N2C(=S)N(c3ccc(C#N)c(C(F)(F)F)c3)C(=O)C2(C)C)cc1F + Cc1nc(NC(=O)N2CCCC2C(N)=O)sc1-c1ccnc(C(C)(C)C(F)(F)F)c1 based on its viability, T/C.
Output: category 2

Input: Please indicate the class for CCN1CCN(Cc2ccc(Nc3ncc(F)c(-c4cc(F)c5nc(C)n(C(C)C)c5c4)n3)nc2)CC1 + COc1c(OCCCN2CCOCC2)ccc2c3n(c(=NC(=O)c4cnc(N)nc4)nc12)CCN3 based on its viability, T/C.
Output: category 1

Input: Please indicate the class for CC(Cn1ccc(-c2ccc(C#N)c(Cl)c2)n1)NC(=O)c1cc(C(C)O)[nH]n1 (stereo unspecified) + Cc1nc(NC(=O)N2CCCC2C(N)=O)sc1-c1ccnc(C(C)(C)C(F)(F)F)c1 based on its viability, T/C.
Output: category 3

Input: Please indicate the class for CCN1CCN(Cc2ccc(Nc3ncc(F)c(-c4cc(F)c5nc(C)n(C(C)C)c5c4)n3)nc2)CC1 + Cc1nc(NC(=O)N2CCCC2C(N)=O)sc1-c1ccnc(C(C)(C)C(F)(F)F)c1 based on its viability, T/C.
Output: category 2

Input: Please indicate the class for Cn1nccc1Nc1nccc(-c2ccn(C(CO)c3ccc(Cl)c(F)c3)c(=O)c2)n1 (stereo unspecified) + CC(Nc1ncnc2nc[nH]c12)c1cc2cccc(Cl)c2c(=O)n1-c1ccccc1 based on its viability, T/C.
Output: category 2

* * *

- Test system: 475296-252-R-J1-PDC spheroid viability
- ASSAY_NOTES: Anticancer human tumor 475296-252-R-J1-PDC cell line growth inhibition [PI3K];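 note: spheroids exposed to agents for seven days before readout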
- CONDITION_CONTEXT: second compound 0.00316 µM; first compound 0.0316 µM; hits give low values; spheroids with HUVEC and MSC
TEST_READOUT: viability, T/C (%)
Report the value in % with no unit label.

Below, each entry is followed by its recorded viability, T/C result.
* CC(=O)c1c(C)c2cnc(Nc3ccc(N4CCNCC4)cn3)nc2n(C2CCCC2)c1=O + CC(Nc1ccc2c(c1)OCCn1cc(N3C(=O)OCC3C(F)F)nc1-2)C(N)=O | 119
* CC(Cn1ccc(-c2ccc(C#N)c(Cl)c2)n1)NC(=O)c1cc(C(C)O)[nH]n1 (stereo not drawn) + COc1c(OCCCN2CCOCC2)ccc2c3n(c(=NC(=O)c4cnc(N)nc4)nc12)CCN3 | 106

With those in mind, consider the next compound.
For this compound ( CNC(=O)c1ccc(N2C(=S)N(c3ccc(C#N)c(C(F)(F)F)c3)C(=O)C2(C)C)cc1F + CC(Nc1ccc2c(c1)OCCn1cc(N3C(=O)OCC3C(F)F)nc1-2)C(N)=O ), measured viability, T/C is 98.4

* * *

- Tested on: 475296-252-R-J1-PDC spheroid viability
- ASSAY_NOTES: Anticancer human tumor 475296-252-R-J1-PDC cell line growth inhibition [PI3K];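 note: spheroids exposed to agents for seven days before readout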
- CONDITION_CONTEXT: compound 1 µM; hits give low values; spheroids with HUVEC and MSC
TEST_READOUT: viability, T/C

• Cn1ncc(Cl)c1-c1cc(C(=O)NC(CN)Cc2cccc(F)c2)sc1Cl (stereo unspecified) = 65.5% [middle of 4 runs]

For this compound ( CC(Cn1ccc(-c2ccc(C#N)c(Cl)c2)n1)NC(=O)c1cc(C(C)O)[nH]n1 (stereo unspecified) ), measured viability, T/C is 105% [middle of 4 runs]

For this compound ( CC(Nc1ncnc2nc[nH]c12)c1cc2cccc(Cl)c2c(=O)n1-c1ccccc1 (stereo unspecified) ), measured viability, T/C is 102% [middle of 8 runs]

For this compound ( CC(Nc1ccc2c(c1)OCCn1cc(N3C(=O)OCC3C(F)F)nc1-2)C(N)=O (stereo unspecified) ), measured viability, T/C is 81.1% [middle of 7 runs]

* * *

- System: 475296-252-R-J1-PDC spheroid viability
- ASSAY_NOTES: Anticancer human tumor 475296-252-R-J1-PDC cell line growth inhibition [PI3K];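 note: spheroids exposed to agents for seven days before readout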
- CONDITION_CONTEXT: second compound 10 µM; first compound 0.000316 µM; hits give low values; spheroids with HUVEC and MSC
TEST_READOUT: viability, T/C (%)
Report the value in % with no unit label.

• CC(C)n1nc(-c2ccc3oc(N)nc3c2)c2c(N)ncnc21 + Cc1nc(NC(=O)N2CCCC2C(N)=O)sc1-c1ccnc(C(C)(C)C(F)(F)F)c1 = 91.1

For this compound ( Cn1ncnc1[C@H]1c2n[nH]c(=O)c3cc(F)cc(c23)N[C@@H]1c1ccc(F)cc1 + Cc1nc(NC(=O)N2CCCC2C(N)=O)sc1-c1ccnc(C(C)(C)C(F)(F)F)c1 ), measured viability, T/C is 91.7

For this compound ( CC(C)n1nc(-c2ccc3oc(N)nc3c2)c2c(N)ncnc21 + CC(Nc1ncnc2nc[nH]c12)c1cc2cccc(Cl)c2c(=O)n1-c1ccccc1 ), measured viability, T/C is 91.3

* * *

- Test system: 475296-252-R-J1-PDC spheroid viability
- ASSAY_NOTES: Anticancer human tumor 475296-252-R-J1-PDC cell line growth inhibition [PI3K];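 note: spheroids exposed to agents for seven days before readout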
- CONDITION_CONTEXT: second compound 1 µM; first compound 0.0316 µM; hits give low values; spheroids with HUVEC and MSC
TEST_READOUT: viability, T/C (%)
Report the value in % with no unit label.

• C#Cc1c(F)ccc2cc(O)cc(-c3ncc4c(N5CC6CCC(C5)N6)nc(OCC56CCCN5CC(F)C6)nc4c3F)c12 (stereo unspecified) + Cc1nc(NC(=O)N2CCCC2C(N)=O)sc1-c1ccnc(C(C)(C)C(F)(F)F)c1 = 78.4
• C=CC(=O)N1CCN(c2nc(=O)n(-c3c(C)ccnc3C(C)C)c3nc(-c4c(O)cccc4F)c(F)cc23)C(C)C1 (stereo unspecified) + COc1c(OCCCN2CCOCC2)ccc2c3n(c(=NC(=O)c4cnc(N)nc4)nc12)CCN3 = 58.2
• CCCS(=O)(=O)Nc1ccc(F)c(C(=O)c2c[nH]c3ncc(-c4ccc(Cl)cc4)cc23)c1F + CC(Nc1ncnc2nc[nH]c12)c1cc2cccc(Cl)c2c(=O)n1-c1ccccc1 = 89.5
• C=CC(=O)N1CCN(c2nc(=O)n(-c3c(C)ccnc3C(C)C)c3nc(-c4c(O)cccc4F)c(F)cc23)C(C)C1 (stereo unspecified) + CC(Nc1ccc2c(c1)OCCn1cc(N3C(=O)OCC3C(F)F)nc1-2)C(N)=O = 82.7
• CCN1CCN(Cc2ccc(Nc3ncc(F)c(-c4cc(F)c5nc(C)n(C(C)C)c5c4)n3)nc2)CC1 + CC(Nc1ncnc2nc[nH]c12)c1cc2cccc(Cl)c2c(=O)n1-c1ccccc1 = 93.8
• CC(C)n1nc(-c2ccc3oc(N)nc3c2)c2c(N)ncnc21 + CC(Nc1ncnc2nc[nH]c12)c1cc2cccc(Cl)c2c(=O)n1-c1ccccc1 = 63

For this molecule ( CC(=O)c1c(C)c2cnc(Nc3ccc(N4CCNCC4)cn3)nc2n(C2CCCC2)c1=O + COc1c(OCCCN2CCOCC2)ccc2c3n(c(=NC(=O)c4cnc(N)nc4)nc12)CCN3 ), measured viability, T/C is 59.7

For this molecule ( CC1(C)CCC(Nc2ncc(C(F)(F)F)c(-c3c[nH]c4c(P(C)(C)=O)c(C#N)ccc34)n2)CN1 (stereo unspecified) + COc1c(OCCCN2CCOCC2)ccc2c3n(c(=NC(=O)c4cnc(N)nc4)nc12)CCN3 ), measured viability, T/C is 57.4

For this molecule ( Cn1nccc1Nc1nccc(-c2ccn(C(CO)c3ccc(Cl)c(F)c3)c(=O)c2)n1 (stereo unspecified) + COc1c(OCCCN2CCOCC2)ccc2c3n(c(=NC(=O)c4cnc(N)nc4)nc12)CCN3 ), measured viability, T/C is 54.9

For this molecule ( C#Cc1c(F)ccc2cc(O)cc(-c3ncc4c(N5CC6CCC(C5)N6)nc(OCC56CCCN5CC(F)C6)nc4c3F)c12 (stereo unspecified) + COc1c(OCCCN2CCOCC2)ccc2c3n(c(=NC(=O)c4cnc(N)nc4)nc12)CCN3 ), measured viability, T/C is 45.9

For this molecule ( Cn1ncnc1[C@H]1c2n[nH]c(=O)c3cc(F)cc(c23)N[C@@H]1c1ccc(F)cc1 + CC(Nc1ccc2c(c1)OCCn1cc(N3C(=O)OCC3C(F)F)nc1-2)C(N)=O ), measured viability, T/C is 85

Hey, just so you know, these numbers are from PubChem BioAssay AID1963980.
